The reported measurements were obtained from patent US20170275357A1.

Target: human IL-17A homodimer (human, UniProt Q16552 24-155)
Test: cell-based or functional assay
Labelling field: enter condition met if recorded IC50, NIH/3T3/KZ170 NF-kB luciferase reporter is less than 5 nM. Enter condition not met if it equals or exceeds that cut-off.

Some solved cases for reference:
**Q:** Hello, I'm reviewing records and need to know if IC50, NIH/3T3/KZ170 NF-kB luciferase reporter of 339-37 (antibody, human IgG1, V domains shown) VH: QVQLVQSGAEVKKPGASVKVSCKASGYTFTEYTMHWVRQAPGQRLEWMGGINPNSGGVSYNQNFKGRVTITRDTSSSTAYMELSSLRSEDTAVFYCARGGDGYYTNYFDIDYWGQGTTVTVSS VL: EIVLTQSPDFQSVTPKEKVTITCSASSSVNYMHWYQQKPDQSPKLLIKDTSKLASGVPSRFSGSGSGTDFTLTINSLEAEDAATYYCQQWNSHPLTFGQGTKLEIK is below 5 nM. Could you check?
**A:** condition not met

**Q:** Hello, I'm reviewing records and need to know if IC50, NIH/3T3/KZ170 NF-kB luciferase reporter of 339-127 (antibody, human IgG1, V domains shown) VH: QVQLVQSGAEVKKPGASVKVSCKASGYTFNEYTMHWVKQSHGQRLEWMGGINPNSGGVSYNQNFKGRVTITRDTSASTAYMELSSLRSEDTAVYYCARGGDGYYTNYFDIDYWGQGTTVTVSS VL: DIQMTQSPSSLSASVGDRVTITCSASSSVNYMHWYQQKPGKVPKLLIYDTSKLASGVPSRFSGSGSGTDFTLTISSLQPEDVATYYCQQWNSHPLTFGQGTKLEIK is below 5 nM. Could you check?
**A:** condition not met

**Q:** Hello, I'm reviewing records and need to know if IC50, NIH/3T3/KZ170 NF-kB luciferase reporter of humanized anti-human IL-17A/F antibody 339-134 mAb IgG1.1 (antibody, V domains shown, IgG1.1/kappa; also called MVC978/MVC717; humanized parent) VH: QVQLVQSGAEVKKPGASVKVSCKASGYTFNEYTMHWVKQAPGQRLEWMGGINPNSGGVSYNQNFKGKATLTVDTSASTAYMELSSLRSEDTAVYYCARGGDGYYTNYFDIDYWGQGTTVTVSS VL: DIQMTQSPSSLSASVGDRVTITCSASSSVNYMHWYQQKPGKVPKLLIYDTSKLASGVPSRFSGSGSGTDFTLTISSLQPEDVATYYCQQWNSHPLTFGQGTKLEIKR is below 5 nM. Could you check?
**A:** condition met

**Q:** Hello, I'm reviewing records and need to know if IC50, NIH/3T3/KZ170 NF-kB luciferase reporter of 339-38 (antibody, human IgG1, V domains shown) VH: QVQLVQSGAEVKKPGASVKVSCKASGYTFNEYTMHWVKQSHGQRLEWMGGINPNSGGVSYNQNFKGKATLTVDTSASTAYMELSSLRSEDTAVYYCARGGDGYYTNYFDIDYWGQGTTVTVSS VL: EIVLTQSPDFQSVTPKEKVTITCSASSSVNYMHWYQQKPDQSPKLLIKDTSKLASGVPSRFSGSGSGTDFTLTINSLEAEDAATYYCQQWNSHPLTFGQGTKLEIK is below 5 nM. Could you check?
**A:** condition not met

**Q:** Hello, I'm reviewing records and need to know if IC50, NIH/3T3/KZ170 NF-kB luciferase reporter of 339-125 (antibody, human IgG1, V domains shown) VH: QVQLVQSGAEVKKPGASVKVSCKASGYTFNEYTMHWVKQSHGQRLEWMGGINPNSGGVSYNQNFKGKATLTVDTSASTAYMELSSLRSEDTAVYYCARGGDGYYTNYFDIDYWGQGTTVTVSS VL: DIQMTQSPSSLSASVGDRVTITCSASSSVNYMHWYQQKPGKVPKLLIYDTSKLASGVPSRFSGSGSGTDFTLTISSLQPEDVATYYCQQWNSHPLTFGQGTKLEIK is below 5 nM. Could you check?
**A:** condition met

***
**Q:** Hello, I'm reviewing records and need to know if IC50, NIH/3T3/KZ170 NF-kB luciferase reporter of 339-39 (antibody, human IgG1, V domains shown) VH: QVQLVQSGAEVKKPGASVKVSCKASGYTFNEYTMHWVKQSHGQRLEWMGGINPNSGGVSYNQNFKGKATLTVDTSSSTAYMELSSLRSEDTAVFYCARGGDGYYTNYFDIDYWGQGTTVTVSS VL: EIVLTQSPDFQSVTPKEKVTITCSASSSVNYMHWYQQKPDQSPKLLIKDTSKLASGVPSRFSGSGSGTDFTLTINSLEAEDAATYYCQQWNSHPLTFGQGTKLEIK is below 5 nM. Could you check?
**A:** condition not met

**Q:** Hello, I'm reviewing records and need to know if IC50, NIH/3T3/KZ170 NF-kB luciferase reporter of 339-104 (antibody, human IgG1, V domains shown) VH: QVQLVQSGAEVKKPGASVKVSCKASGYTFNEYTMHWVKQSHGQRLEWMGGINPNSGGVSYNQNFKGKATLTVDTSSSTAYMELSSLRSEDTAVFYCARGGDGYYTNYFDIDYWGQGTTVTVSS VL: DIQMTQSPSSLSASVGDRVTITCSASSSVNYMHWYQQKPGKVPKLLIYDTSKLASGVPSRFSGSGSGTDFTLTISSLQPEDVATYYCQQWNSHPLTFGQGTKLEIK is below 5 nM. Could you check?
**A:** condition met

**Q:** Hello, I'm reviewing records and need to know if IC50, NIH/3T3/KZ170 NF-kB luciferase reporter of 339-71 (antibody, human IgG1, V domains shown) VH: QVQLVQSGAEVKKPGASVKVSCKASGYTFTEYTMHWVRQAPGQRLEWMGGINPNSGGVSYNQNFKGKATLTVDTSASTAYMELSSLRSEDTAVYYCARGGDGYYTNYFDIDYWGQGTTVTVSS VL: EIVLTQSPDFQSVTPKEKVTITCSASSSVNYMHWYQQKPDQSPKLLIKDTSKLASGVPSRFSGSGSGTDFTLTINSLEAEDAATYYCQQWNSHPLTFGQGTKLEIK is below 5 nM. Could you check?
**A:** condition not met

**Q:** Hello, I'm reviewing records and need to know if IC50, NIH/3T3/KZ170 NF-kB luciferase reporter of 339-105 (antibody, human IgG1, V domains shown) VH: QVQLVQSGAEVKKPGASVKVSCKASGYTFTEYTMHWVRQAPGQRLEWMGGINPNSGGVSYNQNFKGRVTITRDTSSSTAYMELSSLRSEDTAVFYCARGGDGYYTNYFDIDYWGQGTTVTVSS VL: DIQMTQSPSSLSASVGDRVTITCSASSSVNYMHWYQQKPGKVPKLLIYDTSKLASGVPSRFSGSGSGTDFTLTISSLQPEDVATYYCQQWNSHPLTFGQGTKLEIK is below 5 nM. Could you check?
**A:** condition not met

**Q:** Hello, I'm reviewing records and need to know if IC50, NIH/3T3/KZ170 NF-kB luciferase reporter of 339-35 (antibody, human IgG1, V domains shown) VH: QVQLVQSGAEVKKPGASVKVSCKASGYTFNEYTMHWVKQSHGQRLEWMGGINPNSGGVSYNQNFKGRVTITRDTSASTAYMELSSLRSEDTAVYYCARGGDGYYTNYFDIDYWGQGTTVTVSS VL: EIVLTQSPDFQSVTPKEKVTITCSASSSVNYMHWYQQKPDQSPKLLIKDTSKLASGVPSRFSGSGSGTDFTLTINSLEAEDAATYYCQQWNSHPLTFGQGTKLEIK is below 5 nM. Could you check?
**A:** condition not met
